# procedureSummary: method code SF-AS, from DOI: 10.1016/0048-3575(91)90045-n
valueKind: logP
Answer as a number with no unit attached.

Worked examples, 3 molecules total:
{"lineNotation": "O=C(NC(=O)c1c(F)cccc1F)Nc1ccc(Cl)cc1Cl", "reported": 2.18}
{"lineNotation": "O=C(NC(=O)c1c(F)cccc1F)Nc1ccccc1Br", "reported": 1.34}
{"lineNotation": "O=C(NC(=O)c1c(F)cccc1F)Nc1cc(C(F)(F)F)c(Br)cc1F", "reported": 3.17}

Input COc1cc(Br)ccc1NC(=O)NC(=O)c1c(F)cccc1F . Output logP: 2.02

Input O=C(NC(=O)c1c(F)cccc1F)Nc1cc(C(F)(F)F)c(F)cc1F . Output logP: 2.34

Input O=C(NC(=O)c1c(F)cccc1F)Nc1cc(Cl)cc(C(F)(F)F)c1F . Output logP: 3.15

* * *

# procedureSummary: method code SF-AS, from DOI: 10.1016/0048-3575(91)90045-n
Class Condition met: logP at least 3. Class Condition not met: logP below 3.

A selection of reference data follows.
{"lineNotation": "O=C(NC(=O)c1c(F)cccc1F)Nc1cc(Cl)cc(C(F)(F)F)c1Br", "categoryLabel": "Condition met"}
{"lineNotation": "Cc1c(Br)ccc(NC(=O)NC(=O)c2c(F)cccc2F)c1Cl", "categoryLabel": "Condition not met"}
{"lineNotation": "O=C(NC(=O)c1c(F)cccc1F)Nc1cc(F)cc(C(F)(F)F)c1Cl", "categoryLabel": "Condition not met"}
{"lineNotation": "CCCCc1ccc(NC(=O)NC(=O)c2c(F)cccc2F)c(C)c1", "categoryLabel": "Condition met"}
{"lineNotation": "O=C(NC(=O)c1c(F)cccc1F)Nc1ccc(F)cc1", "categoryLabel": "Condition not met"}

Qu. Determine whether this compound has logP no lower than 3: CSc1cc(Br)ccc1NC(=O)NC(=O)c1c(F)cccc1F
Ans. Condition not met

Qu. Determine whether this compound has logP no lower than 3: C#CCOc1cc(NC(=O)NC(=O)c2c(F)cccc2F)c(F)cc1Cl
Ans. Condition not met

Qu. Determine whether this compound has logP no lower than 3: CCc1ccc(NC(=O)NC(=O)c2c(F)cccc2F)cc1
Ans. Condition not met

Qu. Determine whether this compound has logP no lower than 3: O=C(NC(=O)c1c(F)cccc1F)Nc1cc(Cl)cc(C(F)(F)F)c1Cl
Ans. Condition met

Qu. Determine whether this compound has logP no lower than 3: O=C(NC(=O)c1c(F)cccc1F)Nc1cc(C(F)(F)F)cc(C(F)(F)F)c1
Ans. Condition met

* * *

Quick reference: logP of the listed items.
# procedureSummary: method code SF-AS, from DOI: 10.1016/0048-3575(91)90045-n

Worked examples, 8 compounds total:
{"lineNotation": "Cc1c(Cl)cccc1NC(=O)NC(=O)c1c(F)cccc1F", "logP": 1.82}
{"lineNotation": "C=CCOc1cc(NC(=O)NC(=O)c2c(F)cccc2F)c(F)cc1Cl", "logP": 2.76}
{"lineNotation": "O=C(NC(=O)c1c(F)cccc1F)Nc1cccc(Cl)c1Cl", "logP": 2.09}
{"lineNotation": "Cc1ccc(NC(=O)NC(=O)c2c(F)cccc2F)cc1C", "logP": 2.1}
{"lineNotation": "O=C(NC(=O)c1c(F)cccc1F)Nc1ccccc1", "logP": 1.16}
{"lineNotation": "Cc1ccc(NC(=O)NC(=O)c2c(F)cccc2F)cc1Cl", "logP": 2.69}
{"lineNotation": "O=C(NC(=O)c1c(F)cccc1F)Nc1cc(Cl)cc(Cl)c1", "logP": 3.17}
{"lineNotation": "O=C(NC(=O)c1c(F)cccc1F)Nc1cc(Cl)ccc1Cl", "logP": 2.19}

Input O=C(NC(=O)c1c(F)cccc1F)Nc1ccc(Br)cc1 . Output logP: 2.29

Input O=C(NC(=O)c1c(F)cccc1F)Nc1ccc(F)c(C(F)(F)F)c1 . Output logP: 2.64

Input O=C(NC(=O)c1c(F)cccc1F)Nc1ccc(Cl)cc1 . Output logP: 2.12

Input CCCCc1ccc(NC(=O)NC(=O)c2c(F)cccc2F)cc1 . Output logP: 3.3

Input O=C(NC(=O)c1c(F)cccc1F)Nc1ccc(Oc2ncc(C(F)(F)F)cc2Cl)c(Cl)c1 . Output logP: 4.52

Input O=C(NC(=O)c1c(F)cccc1F)Nc1cc(C(F)(F)F)c(Br)c(C(F)(F)F)c1 . Output logP: 4.56
